test system: HCT-116 (colon) carcinoma cell line; assay: antiproliferative growth assay, HCT-116; assay type: cell-based, human; conditions: Homo sapiens, HCT-116; HCT116 colon carcinoma cells
pIC50: −log10 of the molar value.

compound structure | pIC50
O=C(O)c1ccc(/N=C2\S/C(=C/c3ccccc3)C(=O)N2C(=O)c2ccccc2)cc1 | < 4.00
COc1ccc(/N=N/c2ccc(O)c(/C=C3/S/C(=N\c4ccc(C(=O)O)cc4)N(C(=O)c4ccccc4)C3=O)c2)cc1 | < 4.00
COc1ccc(/C=C2/S/C(=N\c3ccc(C(=O)O)cc3)N(C(=O)c3ccccc3)C2=O)cc1 | 4.91
O=C(O)c1ccc(/N=C2\S/C(=C/c3cc(/N=N/c4ccccc4)ccc3O)C(=O)N2C(=O)c2ccccc2)cc1 | < 4.00
O=C(O)c1ccc(/N=C2\S/C(=C/Nc3nc[nH]n3)C(=O)N2C(=O)c2ccccc2)cc1 | 5.14
CN(C)c1ccc(/C=C2/S/C(=N\c3ccc(C(=O)O)cc3)N(C(=O)c3ccccc3)C2=O)cc1 | < 4.00
CN(C)/C=C1\S/C(=N\c2ccc(C(=O)O)cc2)N(C(=O)c2ccccc2)C1=O | 4.91
COc1cc(/C=C2/S/C(=N\c3ccc(C(=O)O)cc3)N(C(=O)c3ccccc3)C2=O)cc(OC)c1 | < 4.00
O=C(O)c1ccc(/N=C2\S/C(=C/c3ccc4ccccc4c3)C(=O)N2C(=O)c2ccccc2)cc1 | < 4.00
O=C(O)c1ccc(/N=C2\S/C(=C/c3ccc(O)cc3)C(=O)N2C(=O)c2ccccc2)cc1 | < 4.00
O=C(O)c1ccc(/N=C2\S/C(=C/c3ccc(O)cc3O)C(=O)N2C(=O)c2ccccc2)cc1 | < 4.00
O=C(O)c1ccc(/N=C2\S/C(=C/c3c[nH]c4ccccc34)C(=O)N2C(=O)c2ccccc2)cc1 | < 4.00
O=C(O)c1ccc(/N=C2\SCC(=O)N2C(=O)c2ccccc2)cc1 | < 4.00

---

system: MCF7 (breast) carcinoma cell line; experiment: antiproliferative growth assay, MCF7; assay type: cell-based, human; conditions: Homo sapiens, MCF7, MCF7 breast carcinoma cells
pIC50: −log10 of the molar value.
As shown below, each of these molecules has a reported pIC50 value.
observation type: pIC50

compound structure | observation type | endpoint result
CN(C)c1ccc(/C=C2/S/C(=N\c3ccc(C(=O)O)cc3)N(C(=O)c3ccccc3)C2=O)cc1 | pIC50 | < 4.00
CN(C)/C=C1\S/C(=N\c2ccc(C(=O)O)cc2)N(C(=O)c2ccccc2)C1=O | pIC50 | 4.76
COc1cc(/C=C2/S/C(=N\c3ccc(C(=O)O)cc3)N(C(=O)c3ccccc3)C2=O)cc(OC)c1 | pIC50 | < 4.00
O=C(O)c1ccc(/N=C2\S/C(=C/c3c[nH]c4ccccc34)C(=O)N2C(=O)c2ccccc2)cc1 | pIC50 | < 4.00
O=C(O)c1ccc(/N=C2\SCC(=O)N2C(=O)c2ccccc2)cc1 | pIC50 | < 4.00
